biological target: T1, Dimeric Monkey Ang-2FD conjugated to human IgG1 (monkey (Macca fascicularis); human); assay: SPR, captured Ab, RT
T1 construct: also called Monkey Ang-2FD-hFc
T1 sequence (chain, as listed by the source limits assumed): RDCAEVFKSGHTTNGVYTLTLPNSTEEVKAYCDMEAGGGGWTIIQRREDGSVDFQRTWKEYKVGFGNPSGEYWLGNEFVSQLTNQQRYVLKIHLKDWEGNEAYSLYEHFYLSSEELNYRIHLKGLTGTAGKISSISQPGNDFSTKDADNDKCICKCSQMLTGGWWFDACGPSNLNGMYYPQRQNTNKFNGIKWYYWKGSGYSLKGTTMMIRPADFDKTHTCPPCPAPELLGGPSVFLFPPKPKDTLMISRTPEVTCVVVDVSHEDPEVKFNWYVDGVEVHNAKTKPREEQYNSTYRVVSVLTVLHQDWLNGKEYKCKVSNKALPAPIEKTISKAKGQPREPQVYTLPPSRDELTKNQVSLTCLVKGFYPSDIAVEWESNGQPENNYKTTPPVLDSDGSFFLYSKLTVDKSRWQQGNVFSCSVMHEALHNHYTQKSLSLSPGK
Binarize T1/2 at 1 h; below is true (1), at or above is false (0).

q: Input H2M743N (antibody, V domains shown) VH: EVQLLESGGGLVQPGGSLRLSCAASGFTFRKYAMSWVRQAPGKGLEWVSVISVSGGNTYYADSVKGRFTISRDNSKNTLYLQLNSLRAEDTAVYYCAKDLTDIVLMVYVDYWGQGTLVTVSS VL: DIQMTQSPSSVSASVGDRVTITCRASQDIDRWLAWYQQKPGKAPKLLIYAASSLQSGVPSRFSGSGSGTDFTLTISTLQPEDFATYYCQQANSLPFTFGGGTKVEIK ; condition: T1/2 strictly below 1 h. Does it hold?
a: false (0)

q: Check if T1/2 falls below 1 h for H1H691P (antibody, V domains shown) VH: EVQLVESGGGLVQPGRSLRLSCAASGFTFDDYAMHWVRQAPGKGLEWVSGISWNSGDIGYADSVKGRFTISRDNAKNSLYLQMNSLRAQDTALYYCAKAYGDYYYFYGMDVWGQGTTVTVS VL: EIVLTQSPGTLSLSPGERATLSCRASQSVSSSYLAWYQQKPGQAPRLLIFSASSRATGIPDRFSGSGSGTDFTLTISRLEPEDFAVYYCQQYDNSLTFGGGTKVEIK .
a: true (1)

q: Problem: For the binder H1H732N (antibody, V domains shown) VH: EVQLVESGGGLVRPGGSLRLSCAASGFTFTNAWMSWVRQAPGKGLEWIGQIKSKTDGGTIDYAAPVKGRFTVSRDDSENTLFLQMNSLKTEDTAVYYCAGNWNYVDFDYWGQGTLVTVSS VL: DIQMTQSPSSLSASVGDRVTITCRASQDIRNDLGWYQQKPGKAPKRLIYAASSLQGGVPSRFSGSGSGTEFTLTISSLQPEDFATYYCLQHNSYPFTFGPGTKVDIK , is T1/2 under 1 h?
a: false (0)

q: Hi there! Is T1/2 for H1M732N (antibody, V domains shown) VH: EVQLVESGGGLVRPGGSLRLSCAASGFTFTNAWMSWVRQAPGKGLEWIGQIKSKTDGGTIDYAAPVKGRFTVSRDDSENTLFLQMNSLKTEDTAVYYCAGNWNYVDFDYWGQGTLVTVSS VL: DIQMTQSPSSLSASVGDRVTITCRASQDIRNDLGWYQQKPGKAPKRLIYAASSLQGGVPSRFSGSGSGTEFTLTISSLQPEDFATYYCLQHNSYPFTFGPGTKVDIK below 1 h, do you know?
a: true (1)

q: In the record for H1M728N (antibody, V domains shown) VH: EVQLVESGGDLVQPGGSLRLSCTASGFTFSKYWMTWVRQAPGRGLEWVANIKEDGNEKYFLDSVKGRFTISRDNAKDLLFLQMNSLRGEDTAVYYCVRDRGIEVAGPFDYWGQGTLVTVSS VL: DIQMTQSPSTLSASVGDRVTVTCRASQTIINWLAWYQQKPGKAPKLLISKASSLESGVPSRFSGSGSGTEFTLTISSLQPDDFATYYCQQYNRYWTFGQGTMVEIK , is T1/2 less than 1 h?
a: false (0)

These measurements were taken from patent US20140112930A1.
